Tested on: thoracic aorta of SH rats
assay: Vaso-relaxing effect on the thoracic aorta of SH rats (in vitro testing after one month treatment)
Assay type: in vivo, rat
cond: aorta rings of SH rats treated for one month (dose per compound as in table), contracted with 10^-6 M methoxamine, acetylcholine 10^-4 M; unit assumed

{"compound": "OC1CCN(CC2CON=C(c3cccnc3)N2)CC1 (centres unmarked) [Compound no. 11]", "studyTarget": "thoracic aorta of SH rats", "vessel relaxing effect, Ach dose 10^-4 M (%)": 86}
{"compound": "Cl.ClC(=NOCC(Cl)CN1CCCCC1)c1ccccc1 (centres unmarked) [Compound no. 12]", "studyTarget": "thoracic aorta of SH rats", "vessel relaxing effect, Ach dose 10^-4 M (%)": 80.4}
{"compound": "O.O.O=[N+]([O-])c1cccc(C(Cl)=NOCCC[N+]2([O-])CCCCC2)c1 [Compound no. 4]", "studyTarget": "thoracic aorta of SH rats", "vessel relaxing effect, Ach dose 10^-4 M (%)": 88.1}
{"compound": "c1cncc(C2=NOCC(CN3CCCCC3)N2)c1 (centres unmarked) [Reference, reference compound]", "studyTarget": "thoracic aorta of SH rats", "vessel relaxing effect, Ach dose 10^-4 M (%)": 81.7}
{"compound": "O=C(NOCC(O)CN1CCCCC1)c1ccc[n+]([O-])c1 (centres unmarked) [Compound no. 13]", "studyTarget": "thoracic aorta of SH rats", "vessel relaxing effect, Ach dose 10^-4 M (%)": 95.2}

src = patent US7550457B2
